Please go through the items and note down their Kd.
- SYSTEM: P4, fluorescein-labelled proline-rich peptide from the SOS1 proline-rich domain (human, UniProt Q07889, fluorescein (FITC) label, position not stated)
- METHOD: FP
Output spec: scalar in µM, unitless text.

Q: // Kd lookup, key: ABL2 SH3 domain, GST cleaved (domain or fragment) SDPNLFVALYDFVASGDNTLSITKGEKLRVLGYNQNGEWSEVRSKNGQGWVPSNYITPVNS
Ans: 125

Q: // Kd lookup, key: ABI1 SH3 domain, GST cleaved (domain or fragment) NYIEKVVAIYDYTKDKDDELSFMEGAIIYVIKKNDDGWYEGVCNRVTGLFPGNYVESIMH
Ans: 24.6
